Let's look at some molecules and their measured Kapp.
test system: poly(dA-dT); assay: ethidium displacement assay, poly(dA-dT); settings: relative to ethidium 9.5 × 10^6 M^-1, average of repeat measurements
# value in M⁻¹; strip the unit string

Example entries and their recorded answers appear below.
Cl.Cl.Cn1cc(NC(=O)c2cc(NC(=O)/C=C\C(=O)Nc3cc(C(=O)Nc4cc(C(=O)NCCC(=N)N)n(C)c4)n(C)c3)cn2C)cc1C(=O)NCCC(=N)N [Compound 22b]    3.8e+07
Cl.Cl.Cn1cc(NC(=O)c2cc(NC(=O)[C@@H]3C[C@H]3C(=O)Nc3cc(C(=O)Nc4cc(C(=O)NCCC(=N)N)n(C)c4)n(C)c3)cn2C)cc1C(=O)NCCC(=N)N [Compound 23b]    5.3e+07
Cl.Cl.Cn1cc(NC(=O)c2cc(NC(=O)[C@@H]3CC[C@H]3C(=O)Nc3cc(C(=O)Nc4cc(C(=O)NCCC(=N)N)n(C)c4)n(C)c3)cn2C)cc1C(=O)NCCC(=N)N (relative stereo) [Compound 25b]    5.6e+07

Measured Kapp, Cl.Cl.Cn1cc(NC(=O)c2cc(NC(=O)c3ccc(C(=O)Nc4cc(C(=O)Nc5cc(C(=O)NCCC(=N)N)n(C)c5)n(C)c4)cc3)cn2C)cc1C(=O)NCCC(=N)N [Compound 19b] : 4.3e+07

Measured Kapp, Cl.Cl.Cn1cc(NC(=O)c2cc(NC(=O)/C=C/C(=O)Nc3cc(C(=O)Nc4cc(C(=O)NCCC(=N)N)n(C)c4)n(C)c3)cn2C)cc1C(=O)NCCC(=N)N [Compound 21b] : 4.9e+07

Measured Kapp, Cl.Cl.Cn1cc(NC(=O)c2cc(NC(=O)c3cccc(C(=O)Nc4cc(C(=O)Nc5cc(C(=O)NCCC(=N)N)n(C)c5)n(C)c4)c3)cn2C)cc1C(=O)NCCC(=N)N [Compound 20b] : 4.9e+07

Measured Kapp, Cn1cc(NC(=O)c2cc(NC(=O)CNC(=N)N)cn2C)cc1C(=O)NCCC(=N)N [Compound 1, reference compound] : 9.4e+07

* * *

target: Moloney Leukemia Virus reverse transcriptase (Moloney murine leukemia virus, UniProt P03355)
test_readout: IC50 (µM)
# value in µM; strip the unit string

Measured IC50, O=C(O)C1=CC(=C(c2ccc(O)c(C(=O)O)c2)c2ccc(O)c(C(=O)O)c2)C=CC1=O [Aurintricarboxylic acid, reference compound] : 3.36

* * *

Let's look at some compounds and their measured NEUTRAL RED DYE UPTAKE.
tested on: 2.2.15 cells; test: toxicity analysis, neutral red dye uptake in 2.2.15 cells; conditions: 100 μg/ml; triplicate, ± standard deviation

Example entries and their recorded answers appear below.
Nc1ccn([C@H]2CC[C@@H](CO)O2)c(=O)n1 [DDC, 2,3'-dideoxycytosine, reference compound]    89 ± 3 % OF CONTROL
Cl.Cl.Cn1cc(NC(=O)c2cc(NC(=O)/C=C\C(=O)Nc3cc(C(=O)Nc4cc(C(=O)NCCC(=N)N)n(C)c4)n(C)c3)cn2C)cc1C(=O)NCCC(=N)N [Compound 22b]    99 ± 1 % OF CONTROL
Cl.Cl.Cn1cc(NC(=O)c2cc(NC(=O)Nc3cc(C(=O)Nc4cc(C(=O)NCCC(=N)N)n(C)c4)n(C)c3)cn2C)cc1C(=O)NCCC(=N)N [Compound 3]    99 ± 2 % OF CONTROL

Next compound, NEUTRAL RED DYE UPTAKE to be filled in.
Measured NEUTRAL RED DYE UPTAKE, Cl.Cl.Cn1cc(NC(=O)c2cc(NC(=O)CC(=O)Nc3cc(C(=O)Nc4cc(C(=O)NCCC(N)=O)n(C)c4)n(C)c3)cn2C)cc1C(=O)NCCC(N)=O [Compound 4] : 100 ± 1 % OF CONTROL
